Molecular target: T1, Karyopherin-β2 (Kapβ2), wild type, GST tag removed (UniProt Q92973-2 1-890)
T1 sequence (looked up): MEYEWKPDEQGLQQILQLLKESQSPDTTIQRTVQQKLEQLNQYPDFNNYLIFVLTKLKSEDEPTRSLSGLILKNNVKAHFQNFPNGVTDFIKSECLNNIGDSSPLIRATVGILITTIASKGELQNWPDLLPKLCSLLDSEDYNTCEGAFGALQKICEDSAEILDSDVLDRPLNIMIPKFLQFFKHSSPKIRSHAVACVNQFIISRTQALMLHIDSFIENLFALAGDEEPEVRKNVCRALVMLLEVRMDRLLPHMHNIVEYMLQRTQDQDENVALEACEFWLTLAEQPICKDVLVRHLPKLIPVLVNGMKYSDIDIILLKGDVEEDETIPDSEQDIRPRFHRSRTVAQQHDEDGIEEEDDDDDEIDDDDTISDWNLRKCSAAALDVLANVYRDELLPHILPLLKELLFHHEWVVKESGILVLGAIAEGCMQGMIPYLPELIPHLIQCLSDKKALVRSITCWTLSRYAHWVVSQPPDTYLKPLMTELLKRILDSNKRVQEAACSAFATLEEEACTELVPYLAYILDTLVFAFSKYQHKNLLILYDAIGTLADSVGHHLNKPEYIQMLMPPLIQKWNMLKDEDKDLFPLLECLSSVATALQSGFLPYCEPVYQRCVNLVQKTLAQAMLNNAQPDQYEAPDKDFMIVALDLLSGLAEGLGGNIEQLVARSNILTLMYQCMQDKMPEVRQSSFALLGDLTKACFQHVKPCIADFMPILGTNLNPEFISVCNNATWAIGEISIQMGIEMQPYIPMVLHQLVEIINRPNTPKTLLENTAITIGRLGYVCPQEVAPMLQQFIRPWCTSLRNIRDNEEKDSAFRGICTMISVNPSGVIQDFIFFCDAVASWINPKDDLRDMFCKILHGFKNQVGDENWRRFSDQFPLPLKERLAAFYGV
Test: ITC
pKd: −log10 of the molar value.

[
  {
    "BINDER": "MBP-HNRNPH2(103-225) WT (domain or fragment, UniProt P55795 103-225, looked up) NSPDTANDGFVRLRGLPFGCSKEEIVQFFSGLEIVPNGMTLPVDFQGRSTGEAFVQFASQEIAEKALKKHKERIGHRYIEIFKSSRAEVRTHYDPPRKLMAMQRPGPYDRPGAGRGYNSIGRG",
    "pKd": 7.30
  },
  {
    "BINDER": "ERPAQNEKRKEKNIKRGGNRFEPYANPTKR (domain or fragment, UniProt P52272 41-70, looked up) [MBP-HNRNPM PY-NLS (41-70)]",
    "pKd": 8.05
  },
  {
    "BINDER": "MBP-HNRNPH2(103-225) R212A (domain or fragment, UniProt P55795 103-225, looked up) NSPDTANDGFVRLRGLPFGCSKEEIVQFFSGLEIVPNGMTLPVDFQGRSTGEAFVQFASQEIAEKALKKHKERIGHRYIEIFKSSRAEVRTHYDPPRKLMAMQRPGPYDAPGAGRGYNSIGRG",
    "pKd": 5.49
  },
  {
    "BINDER": "MBP-HNRNPH2(103-225) R206Q (domain or fragment, UniProt P55795 103-225, looked up) NSPDTANDGFVRLRGLPFGCSKEEIVQFFSGLEIVPNGMTLPVDFQGRSTGEAFVQFASQEIAEKALKKHKERIGHRYIEIFKSSRAEVRTHYDPPRKLMAMQQPGPYDRPGAGRGYNSIGRG",
    "pKd": 5.44
  }
]

Origin of the recorded values: paper PMC10524338
